tested on: MDA-N; assay: NCI tumour cell line growth inhibition, 48 h
Activity calls are given as the source filed them. No stated cut-off is given here; in the data, active = GI50 up to about 1.1 µM and inactive = higher.
Reported GI50 values for a set of compounds
measuredMetric: GI50

- compound: "CCOC(=O)c1ccc2c(c1)Cc1cc([N+](=O)[O-])ccc1-2"
  testValue: "48 µM (inactive)"
- compound: "CCOC(=O)c1cnc(-n2[nH]c(C)c(CCO)c2=O)[nH]c1=O"
  testValue: "> 100 µM (inactive)"
- compound: "CSc1ncnc2c1cnn2Cc1cnnn1COCC(O)CO (stereo unspecified)"
  testValue: "> 100 µM (inactive)"
- compound: "CCNC(=S)N/N=C1\\C(=O)Nc2ccc([N+](=O)[O-])cc21"
  testValue: "> 100 µM (inactive)"
- compound: "CC(C)C(C/C=C1/CC(CO)(COC(=O)C(C)(C)C)OC1=O)C(C)C (stereo unspecified)"
  testValue: "4.3 µM (inactive)"
- compound: "COc1cc(O)c(C(=O)/C=C/c2ccc(O)cc2)cc1Oc1ccc(C(=O)/C=C/c2ccc(O)cc2)c(O)c1"
  testValue: "3.21 µM (inactive)"
- compound: "CN1C(=O)C(O)C[C@@H]1c1ccc(F)cc1 (stereo partly specified)"
  testValue: "> 100 µM (inactive)"
- compound: "Cc1cc2c(=O)[nH]nc(N)c2c(N)n1"
  testValue: "> 100 µM (inactive)"
- compound: "COC(=O)/C(=C\\C(=O)c1ccc(Br)cc1)NN=C(c1ccccc1)c1ccccc1"
  testValue: "> 10 µM (inactive)"
- compound: "O=C(O)C(Cl)(c1ccccc1)c1ccccc1"
  testValue: "> 100 µM (inactive)"
- compound: "C=C1CC(COc2ccc3c(C)c(Cl)c(=O)oc3c2)(c2ccccc2)OC1=O (stereo unspecified)"
  testValue: "2.07 µM (inactive)"

---

test system: Hs-578T; assay: NCI tumour cell line growth inhibition, 48 h
The source made the active and inactive calls. Cut-off read from the data, not from the text of the source: active = GI50 up to about 1.1 µM and inactive = higher.

- molecule: "COc1ccc(C(=O)/C=C/c2ccncc2)cc1OC"
  GI50: "13.7 µM (inactive)"
- molecule: "c1ccc2c3c(c(N4CCOCC4)nc2c1)CCCC3"
  GI50: "76.6 µM (inactive)"
- molecule: "N#Cc1ccc(OC(=O)c2ccc(NC(=N)N)cc2)cc1.c1ccncc1"
  GI50: "> 100 µM (inactive)"
- molecule: "CN(C)Cc1cc(/N=N/c2c(Cl)cccc2Cl)ccc1O"
  GI50: "40.9 µM (inactive)"
- molecule: "O=[N+]([O-])c1cc(CCl)ccc1CCl"
  GI50: "2.72 µM (inactive)"
- molecule: "CC(C)=CCC[C@@H](C)C1=C(O)C(=O)C(C)=C(Nc2ccccc2Cl)C1=O"
  GI50: "21.7 µM (inactive)"
- molecule: "CCN(CC)C(=S)SS(=O)(=O)c1ccc(NC(C)=O)cc1"
  GI50: "45 µM (inactive)"
- molecule: "COc1ccccc1CNCCCCCNCCCCCCCCCCNCCCCCNCc1ccccc1OC"
  GI50: "1.05 µM (active)"
- molecule: "CCCN(CCC)C(=S)N/N=C/c1ccccn1"
  GI50: "2.96 µM (inactive)"
- molecule: "C/C1=C\\CC[C@@]2(C)O[C@@H]2C[C@@H](C2(C)CO2)CC/C(C)=C/CC1 (stereo partly specified)"
  GI50: "19.5 µM (inactive)"
- molecule: "CCOC(=O)c1ccc2c(c1)nc1n2C(c2c(F)cccc2F)SC1 (stereo unspecified)"
  GI50: "26.2 µM (inactive)"

The reported numbers originate from ChEMBL document CHEMBL1201862.
